# Tested on: CN0375-F725-PDC KRAS spheroid viability
# experiment.description: Anticancer human tumor CN0375-F725-PDC patient-derived colon carcinoma cell line growth inhibition [KRAS2]
# reported.conditions: second compound 10 µM; first compound 0.000316 µM; active compounds read low; spheroids with HUVEC and MSC
viability, T/C under 60% gets Y, anything at or over 60% gets N.

Bench note: check whether Cn1ncnc1[C@H]1c2n[nH]c(=O)c3cc(F)cc(c23)N[C@@H]1c1ccc(F)cc1 + CNCc1ccccc1-c1csc(C(C)Nc2nc(C)nc3cc(OC)c(OC)cc23)c1 shows viability, T/C below 60%
Y

Bench note: check whether CC(C)n1nc(-c2ccc3oc(N)nc3c2)c2c(N)ncnc21 + CC1OCC2(CCN(c3cnc(Sc4ccnc(N)c4Cl)c(N)n3)CC2)C1N shows viability, T/C below 60%
N

Bench note: check whether CN(C)C/C=C/C(=O)Nc1cc2c(Nc3ccc(F)c(Cl)c3)ncnc2cc1O[C@H]1CCOC1 + COc1cc2nc(C)nc(NC(C)c3cc(N)cc(C(F)(F)F)c3)c2cc1OC1CCOC1 shows viability, T/C below 60%
N

Bench note: check whether CN(C)C/C=C/C(=O)Nc1cc2c(Nc3ccc(F)c(Cl)c3)ncnc2cc1O[C@H]1CCOC1 + CNCc1ccccc1-c1csc(C(C)Nc2nc(C)nc3cc(OC)c(OC)cc23)c1 shows viability, T/C below 60%
Y

Bench note: check whether CN(C)C/C=C/C(=O)Nc1cc2c(Nc3ccc(F)c(Cl)c3)ncnc2cc1O[C@H]1CCOC1 + C=CC(=O)N1CCN(c2nc(=O)n(-c3c(C)ccnc3C(C)C)c3nc(-c4c(O)cccc4F)c(F)cc23)C(C)C1 shows viability, T/C below 60%
N

* * *

# Tested on: CN0375-F725-PDC KRAS spheroid viability
# experiment.description: Anticancer human tumor CN0375-F725-PDC cell line growth inhibition [KRAS2]; active means viability on the fitted dose curve at most 10% of control; inactive means the rest;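 also: spheroids exposed to agents for 7 days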
# reported.conditions: second compound 3.16 µM; first compound 0.1 µM; spheroids with HUVEC and MSC
Hi there, use one of these labels in your reply, thanks! active, inactive

// outcome(item) with item = COC(=O)c1ccc2c(C(=Nc3ccc(N(C)C(=O)CN4CCN(C)CC4)cc3)c3ccccc3)c(O)[nH]c2c1 + COc1cc2nc(C)nc(NC(C)c3cc(N)cc(C(F)(F)F)c3)c2cc1OC1CCOC1
inactive

// outcome(item) with item = CCN1CCN(Cc2ccc(Nc3ncc(F)c(-c4cc(F)c5nc(C)n(C(C)C)c5c4)n3)nc2)CC1 + C=CC(=O)N1CCN(c2nc(OCC3CCCN3C)nc3c2CCN(c2cccc4cccc(C)c24)C3)CC1CC#N
inactive

// outcome(item) with item = CN(C)C/C=C/C(=O)Nc1cc2c(Nc3ccc(F)c(Cl)c3)ncnc2cc1O[C@H]1CCOC1 + C=CC(=O)N1CCN(c2nc(=O)n(-c3c(C)ccnc3C(C)C)c3nc(-c4c(O)cccc4F)c(F)cc23)C(C)C1
inactive

// outcome(item) with item = COc1cc(Nc2ncc3c(n2)-c2ccc(Cl)cc2C(c2c(F)cccc2OC)=NC3)ccc1C(=O)O + CNCc1ccccc1-c1csc(C(C)Nc2nc(C)nc3cc(OC)c(OC)cc23)c1
active

// outcome(item) with item = Cn1ncnc1[C@H]1c2n[nH]c(=O)c3cc(F)cc(c23)N[C@@H]1c1ccc(F)cc1 + C=CC(=O)N1CCN(c2nc(=O)n(-c3c(C)ccnc3C(C)C)c3nc(-c4c(O)cccc4F)c(F)cc23)C(C)C1
inactive
